Sourced from patent US20260217697A1

Assay Target: hTRPV3 (Homo sapiens, UniProt Q8NET8)
Construct: The commercially available plasmid with the full-length cDNA of hTRPV3 (791 aa) (NM_001258205.2)
Sequence (Q8NET8 1-791 isoform Q8NET8-2): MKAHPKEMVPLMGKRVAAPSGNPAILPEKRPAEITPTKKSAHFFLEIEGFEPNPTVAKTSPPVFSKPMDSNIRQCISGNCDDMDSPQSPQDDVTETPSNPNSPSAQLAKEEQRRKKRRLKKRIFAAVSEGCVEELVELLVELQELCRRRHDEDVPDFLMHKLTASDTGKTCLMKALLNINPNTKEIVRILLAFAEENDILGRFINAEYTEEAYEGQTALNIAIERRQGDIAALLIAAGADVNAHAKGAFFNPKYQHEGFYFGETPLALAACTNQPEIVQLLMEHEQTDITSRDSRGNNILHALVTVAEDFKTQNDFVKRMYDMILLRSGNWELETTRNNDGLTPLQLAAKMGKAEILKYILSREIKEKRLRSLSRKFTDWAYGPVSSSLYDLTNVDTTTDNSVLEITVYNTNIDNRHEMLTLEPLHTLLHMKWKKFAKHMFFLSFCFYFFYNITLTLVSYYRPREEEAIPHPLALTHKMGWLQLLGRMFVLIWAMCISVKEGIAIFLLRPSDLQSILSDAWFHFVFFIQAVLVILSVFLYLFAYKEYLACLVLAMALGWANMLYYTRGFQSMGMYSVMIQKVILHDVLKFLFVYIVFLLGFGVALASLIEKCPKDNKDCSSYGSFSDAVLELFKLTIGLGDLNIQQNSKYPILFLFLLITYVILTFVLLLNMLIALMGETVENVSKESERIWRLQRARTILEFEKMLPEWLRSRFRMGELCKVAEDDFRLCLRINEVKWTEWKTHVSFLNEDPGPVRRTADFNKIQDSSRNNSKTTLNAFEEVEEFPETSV
Procedure Summary: Whole-cell patch-clamp recording of hTRPV3 current in transfected HEK293T cells (2-APB induced)
Condition Info: current induced by 300 μM 2-APB, compounds tested up to 10 μM, room temperature
Measured Metric: IC50

Worked examples follow.
> print(dat)
                                   compound            result
1  CCC1(CC)Oc2cc3c(cc2-c2nc(NC(=O)c4c(OC)ncnc4OC)sc21)OCO3 [compound 51]        ≥ 10000 nM
2  COc1ncnc(OC)c1C(=O)Nc1nc2c(s1)C1(CN(C(=O)OC(C)(C)C)C1)Oc1cc(C(F)(F)F)ccc1-2 [compound 63]          < 100 nM
3  CCC1(CC)Oc2cc(C(F)(F)F)ccc2-c2nc(NC(=O)c3c(C)n[nH]c3C)sc21 [compound 93]  1000 to 10000 nM

Please state, for each entry, its recorded IC50.
1. COc1ncnc(OC)c1C(=O)Nc1nc2c(s1)C(C)(C)Oc1cc(C(F)(F)F)ccc1-2 [compound 8]
2. COc1ncnc(OC)c1C(=O)Nc1nc2c(s1)C1(CC(NC(=O)OC(C)(C)C)C1)Oc1cc(C(F)(F)F)ccc1-2 (stereo not drawn) [compound 131]
3. COc1ncnc(OC)c1C(=O)Nc1nc2c(s1)C1(CN(C(C)=O)C1)Oc1cc(C(F)(F)F)ccc1-2 [compound 68]
4. CCC1(CC)Oc2cc(C(F)(F)F)ccc2-c2nc(NC(=O)c3c(OC)nn(C)c3Br)sc21 [compound 161]
5. COc1ncnc(OC)c1C(=O)Nc1nc2c(s1)C1(CCC(C(=O)N(C)C(C)C)CC1)Oc1cc(C(F)(F)F)ccc1-2 (stereo not drawn) [compound 127]
6. COc1ncnc(OC)c1C(=O)Nc1nc2c(s1)C1(CN(C(C)(C)CC(C)=O)C1)Oc1cc(C(F)(F)F)ccc1-2 [compound 167]

100 to 1000 nM
100 to 1000 nM
1000 to 10000 nM
≥ 10000 nM
100 to 1000 nM
100 to 1000 nM

Hey, quick one: what's IC50 for each of these?
1. COc1ncnc(OC)c1C(=O)Nc1nc2c(s1)C1(CCC(C(C)(C)C)CC1)Oc1cc(C(F)(F)F)ccc1-2 (stereo not drawn) [compound 18]
2. COc1ncnc(OC)c1C(=O)Nc1nc2c(s1)COc1cc(F)ccc1-2 [compound 10]
3. COc1ncnc(OC)c1C(=O)Nc1nc2c(s1)C1(CN(C(C)C)C1)Oc1cc(C(F)(F)F)ccc1-2 [compound 136]
4. CCC1(CC)Oc2cc(C(F)(F)F)ccc2-c2nc(NC(=O)c3c(NC)ncnc3OC)sc21 [compound 120]
5. CCC1(CC)Oc2cc(C(F)(F)F)ccc2-c2nc(NC(=O)c3c(OC)ccnc3OC)sc21 [compound 98]
6. COc1ncnc(OC)c1C(=O)Nc1nc2c(s1)C1(CCCC1)Oc1cc(C(F)(F)F)ccc1-2 [compound 23]

["1000 to 10000 nM", "≥ 10000 nM", "< 100 nM", "1000 to 10000 nM", "100 to 1000 nM", "100 to 1000 nM"]
